tested-on: CK1α (Homo sapiens, UniProt P48729+Q96SW2)
Sequence (P48729 whole entry): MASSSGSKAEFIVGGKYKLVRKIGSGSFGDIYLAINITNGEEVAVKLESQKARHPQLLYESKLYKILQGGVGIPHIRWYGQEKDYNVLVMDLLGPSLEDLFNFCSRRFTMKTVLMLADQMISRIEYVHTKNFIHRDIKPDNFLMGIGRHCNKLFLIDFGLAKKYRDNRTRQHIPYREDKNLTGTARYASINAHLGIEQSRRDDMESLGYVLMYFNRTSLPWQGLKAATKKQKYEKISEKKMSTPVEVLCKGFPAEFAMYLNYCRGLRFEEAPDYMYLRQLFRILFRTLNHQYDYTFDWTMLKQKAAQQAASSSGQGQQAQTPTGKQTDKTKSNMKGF
Sequence (Q96SW2 whole entry): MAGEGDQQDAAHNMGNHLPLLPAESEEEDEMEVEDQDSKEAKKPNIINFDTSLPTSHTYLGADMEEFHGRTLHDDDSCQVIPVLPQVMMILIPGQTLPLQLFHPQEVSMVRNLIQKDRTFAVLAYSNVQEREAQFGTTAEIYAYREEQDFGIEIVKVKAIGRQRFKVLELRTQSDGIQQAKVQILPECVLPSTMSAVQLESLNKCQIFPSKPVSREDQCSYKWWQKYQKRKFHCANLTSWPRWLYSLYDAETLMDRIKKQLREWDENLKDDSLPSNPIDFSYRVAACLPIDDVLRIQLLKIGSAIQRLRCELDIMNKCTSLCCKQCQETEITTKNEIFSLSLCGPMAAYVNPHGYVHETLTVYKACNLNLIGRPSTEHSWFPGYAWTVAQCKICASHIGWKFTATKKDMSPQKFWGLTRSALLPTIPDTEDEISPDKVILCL
Sequence (Q16531 whole entry partner): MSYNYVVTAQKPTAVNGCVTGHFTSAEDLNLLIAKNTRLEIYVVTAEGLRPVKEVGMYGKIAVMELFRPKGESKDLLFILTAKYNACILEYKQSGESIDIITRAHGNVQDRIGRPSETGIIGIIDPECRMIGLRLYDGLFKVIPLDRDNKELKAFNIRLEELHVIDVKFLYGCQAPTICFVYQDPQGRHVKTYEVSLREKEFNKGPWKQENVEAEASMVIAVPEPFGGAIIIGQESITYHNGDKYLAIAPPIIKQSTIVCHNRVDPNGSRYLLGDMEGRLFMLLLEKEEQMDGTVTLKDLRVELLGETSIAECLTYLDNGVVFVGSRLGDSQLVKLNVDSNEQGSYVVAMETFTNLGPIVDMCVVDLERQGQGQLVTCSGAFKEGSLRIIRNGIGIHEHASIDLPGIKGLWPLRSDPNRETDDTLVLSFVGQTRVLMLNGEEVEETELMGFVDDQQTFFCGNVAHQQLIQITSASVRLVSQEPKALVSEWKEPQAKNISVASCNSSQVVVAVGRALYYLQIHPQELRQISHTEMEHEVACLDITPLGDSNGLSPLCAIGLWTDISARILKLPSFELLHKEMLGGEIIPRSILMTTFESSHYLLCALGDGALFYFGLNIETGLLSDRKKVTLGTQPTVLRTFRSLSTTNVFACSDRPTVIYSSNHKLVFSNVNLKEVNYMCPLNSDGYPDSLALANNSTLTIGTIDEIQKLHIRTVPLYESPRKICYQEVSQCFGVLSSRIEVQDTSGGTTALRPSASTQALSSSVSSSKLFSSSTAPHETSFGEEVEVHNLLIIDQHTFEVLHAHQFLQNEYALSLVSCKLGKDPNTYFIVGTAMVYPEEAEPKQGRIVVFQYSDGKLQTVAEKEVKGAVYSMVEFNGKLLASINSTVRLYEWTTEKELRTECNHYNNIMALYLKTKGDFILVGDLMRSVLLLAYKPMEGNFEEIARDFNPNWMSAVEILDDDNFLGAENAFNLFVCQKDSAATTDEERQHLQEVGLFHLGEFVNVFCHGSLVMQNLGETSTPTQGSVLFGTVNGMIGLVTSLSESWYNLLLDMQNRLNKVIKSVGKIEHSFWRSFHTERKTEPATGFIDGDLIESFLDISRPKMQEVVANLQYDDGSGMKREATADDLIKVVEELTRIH
protocol-details: CK1α degradation, flow cytometry in MV4-11 cells
Assay type: cell-based
Parameters: CK1α levels were determined in MV-4-11 cells using Jess (Protein Simple); host or cells: MV-4-11
applied-conditions: % reduction of CK1α compared to DMSO, MV4-11 cells at 316 nM for 16 hours, read-out: CK1α degradation classification
Where a name gives a salt, the structure may show the parent alone.
This section presents compounds with their documented Dmax at 0.316 µM values.
experimental-readout: Dmax at 0.316 µM

compound | experimental-readout | result
O=C1CCC(N2Cc3c(cccc3N(CCC3CC3)[C@H]3CC[C@H](NCCC(F)(F)F)CC3)C2=O)C(=O)N1 (stereo partly shown) | Dmax at 0.316 µM | > 75%
CCCCCN(c1cccc2c1CN(C1CCC(=O)NC1=O)C2=O)[C@@H]1CC[C@H](CN)C1 (stereo partly shown) [Compound 326, Formic Acid salt] | Dmax at 0.316 µM | > 75%
COC(C)(C)CN[C@H]1CC[C@@H](N(CCC2CC2)c2cccc3c2CN(C2CCC(=O)NC2=O)C3=O)CC1 (stereo partly shown) [Compound 541A] | Dmax at 0.316 µM | 50 to 75%
N[C@H]1CC[C@H](N(CCN2CCNCC2)c2cccc3c2CN(C2CCC(=O)NC2=O)C3=O)CC1 (stereo partly shown) | Dmax at 0.316 µM | < 50%
CCCCCN(c1cccc2c1CN(C1CCC(=O)NC1=O)C2=O)[C@H]1CC[C@H](NC(C)C)CC1 (stereo partly shown) [Compound 310, HCl] | Dmax at 0.316 µM | 50 to 75%
O=C1CCC(N2Cc3c(cccc3N(CCC3CC3)[C@H]3CC[C@@H](NCC(F)F)CC3)C2=O)C(=O)N1 (stereo partly shown) [Compound 539A] | Dmax at 0.316 µM | > 75%
CCCCCN(c1cccc2c1CN(C1CCC(=O)NC1=O)C2=O)[C@H]1CC[C@H](C(=O)NC)CC1 (stereo partly shown) | Dmax at 0.316 µM | > 75%

src = patent US20250188069A1
